System: intracellular amastigote form of L. major
EXPERIMENT SUMMARY: Luciferase assay, intracellular amastigotes in THP-1 macrophages
Format: cell-based, Leishmania major
RUN PARAMETERS: Leishmania major; intracellular amastigotes in THP-1 macrophages, 72 h, luciferase
MEASURE: IC50

CCCCCCCCCCCCCCCCOP(=O)([O-])OCC[N+](C)(C)C ... 5.1 µM
C[C@@H]1[C@H](O)[C@@H](C)/C=C/C=C/C=C/C=C/C=C/C=C/C=C/[C@H](O[C@@H]2O[C@H](C)[C@@H](O)[C@H](N)[C@@H]2O)C[C@@H]2O[C@](O)(C[C@@H](O)C[C@@H](O)[C@H](O)CC[C@@H](O)C[C@@H](O)CC(=O)O[C@H]1C)C[C@H](O)[C@H]2C(=O)O ... 4.41 µM

Endpoint output: IC50 of CN(C)c1ccc(/C=C/c2sc3ccccc3[n+]2C)cc1.[I-] . Value? 0.000484 µM
